- assayed system: SARS-CoV-2 membrane protein on expressing cells (SARS-CoV-2, UniProt P0DTC5 1-222)
Catalogue of binders with associated MFI Ratio

binder	MFI Ratio
10-30 (VHH) VHH: EVQLVESGGGLVQPGGSLRLSCAASGRTFSSFRFRAMGWFRQAPGKEREFVALIFSGGSTYYADSVKGRFTISADNSKNTAYLQMNSLKPEDTAVYYCAREWGRWLQRGSYWGQGTLVTVSS	1.57
10-48 (VHH) VHH: EVQLVESGGGLVQPGGSLRLSCAASGRTFRRYAMGWFRQAPGKEREFVAAINRSGSTEYADSVKGRFTISADNSKNTAYLQMNSLKPEDTAVYYCARQHQDFWTGYYTVWGQGTLVTVSS	4.11
10-9 (VHH) VHH: EVQLVESGGGLVQPGGSLRLSCAASGIPFRSRTMGWFRQAPGKEREFVAGITGSGRSQYYADSVKGRFTISADNSKNTAYLQMNSLKPEDTAVYYCARGARIFGSVAPWRGGNYYGMDVWGQGTLVTVSS	1.61
10-22 (VHH) VHH: EVQLVESGGGLVQPGGSLRLSCAASGRTYYAMGWFRQAPGKEREFVGAIDWSGRRITYADSVKGRFTISADNSKNTAYLQMNSLKPEDTAVYYCARVRFSRLGGVIGRPIDSWGQGTLVTVSS	4.47

# credit: patent US20210355194A1
